The measured values listed here are drawn from a melting point compilation (Tetko et al.; mined from patent text by program, amines drawn as free bases though some values may be those of a salt).

Observable: melting point

For orientation, consider the following solved cases.
1. CC(=O)NCC(C)(C)c1ccc2nc(-c3ccc(C)cc3)[nH]c2c1    230 to 232 °C
2. Cn1cnc(COc2nn3c(-c4cc(CO)on4)nnc3c3ccccc23)n1    275 to 276 °C
3. FC(F)c1nc2ccccc2n1-c1nc(Nc2ccccc2)nc(N2CCOCC2)n1    171 to 174 °C
4. O=C1C2CCCC2=Nc2ccccc2N1CCc1ccccc1 (centres undefined)    101 to 102 °C
5. Cc1cc(C(=O)N2Cc3cccn3Cc3ccccc32)ccc1NC(=O)c1ccc(Cl)cc1Cl    213 to 215 °C
6. Cc1ccccc1C(=O)Nc1ccc(C(=O)N2Cc3ccnn3Cc3ccccc32)c(Cl)c1    241 to 244 °C
7. O=c1[nH][nH]c(=O)n1-c1ccc(Cl)cc1    234 to 236 °C
8. COc1ccc(C2(C#N)CCC(=O)CC2)cc1OC    111 to 112 °C

# ---- query compound ----
[Q] # get_value(readout='melting point', item= Clc1ccc2[nH]cc(C3=CCN(CCCOc4cccc5[nH]ccc45)CC3)c2c1 )
[A] 198 to 202 °C

---

Listing: melting point of selected compounds

Use the examples below as a reference point.
1) COc1ccc2c(-c3ccccc3)c(C(=O)c3cccc(Cl)c3)sc2c1    105 °C
2) O=C1NCN(c2ccccc2)C12CCN(CC(O)COc1ccc(F)cc1)CC2 (stereo unspecified)    152 to 154 °C
3) Cc1nc2ccc(NC3=NCCN3)c(Br)c2nc1C    252 to 254 °C
4) COCCO[C@@H]1c2ccc3[nH]c(C)nc3c2O[C@H](c2ccccc2)[C@H]1O    117 °C

[Q] Fill blank: measured melting point of the compound C/C(NC1CCCCC1)=C(\C#N)C(N)=S is ____.
[A] 142 to 144 °C

[Q] Consider the compound shown here: O=C(Cn1nnc2ccccc21)Nc1ccc(-n2nc(C3CC3)cc2C2CC2)cc1 What is its recorded melting point?
[A] 216 to 220 °C

[Q] Please look up its melting point: CC(C)CNC(=O)[C@H]1C[C@H](C(=O)OC(C)(C)C)N(C(=O)CNC(=O)Nc2cccc(C(=O)O)c2)[C@@H]1c1ccccc1F (racemic)
[A] 160 °C

[Q] Given the entry CON=CNC(=O)c1ccc(C=NO)cc1C , report its measured melting point.
[A] 88 to 91 °C

[Q] Name the reported melting point value associated with the compound CCOCc1nc2c(N)nc3ccccc3c2n1NC(C)C
[A] 162 to 164 °C

---

Observable: melting point

// worked examples, melting point included
1. CCOC(=O)c1sc(Oc2ccc(O)cc2)c2c1CCc1cnn(C)c1-2    245 to 246 °C
2. CCCCCCCCC1(CCCCCCCC)c2cc(Br)ccc2-c2ccc(Br)cc21    52 to 54 °C
3. COCCOc1ccc(/C=C/C(=O)O)c(Oc2ncc(NC(=O)OC(C)(C)C)cc2C)c1    159 to 160 °C

[Q] Reported melting point for COC(=O)NCCc1ccc(C(=O)OC)c(S(=O)(=O)NC(=O)Nc2nc(OC)cc(OC)n2)c1 : what is it?
[A] 165 to 169 °C

[Q] Any idea what its melting point is? The compound is CS(=O)(=O)c1ccc(-c2cc(N)sc2-c2ccc(F)cc2)cc1
[A] 207 to 209 °C

[Q] Endpoint output: melting point of NC(=O)c1cc(-c2ccc(Cl)cc2)on1 . Value?
[A] 224 to 225 °C

[Q] Endpoint output: melting point of NC(=O)c1cccc2c1CCCc1ccccc1-2 . Value?
[A] > 250 °C

[Q] Dear colleague, I am looking for the recorded melting point of the following compound: CCC(NS(C)(=O)=O)c1ccc(Cl)c2nc3n(c12)CCCN3c1ccc(Cl)cc1Cl (configuration not stated)
[A] 125 to 126 °C
